# TEST TARGET: human full length PIK3KA Wild-type (p110α/p85α complex) (Homo sapiens)
# Construct: Recombinant, catalytically active human full length PIK3KA Wild-type and H1047R mutant were purchased; 6xHis (N); purchased EMD Millipore Sigma 14-602M
# MEASUREMENT NOTES: PI3K-Alpha Kinase (PIK3CA) biochemical activity, wild-type (ADP-Glo)
# CONDITIONS: PIP2diC8 lipid substrate, 20 uM ATP
pIC50: −log10 of the molar value.
READOUT LABEL: pIC50

Reference set (5 entries):
Cc1cc(C(C)Nc2ccccc2C(=O)O)c2oc(-c3cnccn3)cc(=O)c2c1 (single isomer, unassigned; isomer 1) [Example 15] = 5.30 to 6.00
Cc1cc(C(C)Nc2ccccc2C(=O)O)c2oc(-c3ccc(OC(C)C)nc3)cc(=O)c2c1 (single isomer, unassigned; isomer 2) [Example 31] = 5.30 to 6.00
COc1ncc(-c2cc(=O)c3cc(C)cc(C(C)Nc4ccccc4C(=O)O)c3o2)cn1 (single isomer, unassigned) [Example 4] = > 6.30
COc1ncc(-c2cc(=O)c3cc(C)cc(C(C)Nc4ccccc4C(=O)O)c3o2)cn1 (single isomer, unassigned) [Example 5] = < 5.00
Cc1cc(C(C)Nc2ccccc2C(=O)O)c2oc(-c3ccc(OC(C)C)nc3)cc(=O)c2c1 (single isomer, unassigned; isomer 1) [Example 30] = < 5.00

Pending compound:
Exercise: Can you share its pIC50? I mean this compound: Cc1cc(C(C)Nc2ccccc2C(=O)O)c2oc(-c3cnc(C)nc3)cc(=O)c2c1 (single isomer, unassigned; isomer 2) [Example 33]
Solution: < 5.00
